# targetOfAssay: UniProt:Q00987
# Sequence (Q00987 whole entry): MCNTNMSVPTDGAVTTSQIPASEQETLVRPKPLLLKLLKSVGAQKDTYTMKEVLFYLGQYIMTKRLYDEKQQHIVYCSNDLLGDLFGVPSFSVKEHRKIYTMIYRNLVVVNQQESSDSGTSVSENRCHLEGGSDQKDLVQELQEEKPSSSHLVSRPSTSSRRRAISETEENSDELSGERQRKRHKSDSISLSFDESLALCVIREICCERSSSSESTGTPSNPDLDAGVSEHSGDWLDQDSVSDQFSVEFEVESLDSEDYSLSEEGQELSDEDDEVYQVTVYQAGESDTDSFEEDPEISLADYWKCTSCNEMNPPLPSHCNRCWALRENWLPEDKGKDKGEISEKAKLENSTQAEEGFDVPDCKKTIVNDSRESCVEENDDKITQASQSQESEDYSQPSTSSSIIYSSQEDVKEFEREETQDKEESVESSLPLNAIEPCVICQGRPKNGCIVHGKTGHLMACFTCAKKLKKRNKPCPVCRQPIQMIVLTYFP
# test: MDM2 binding screen: displacement of fluorescent p53 peptide probe FP53 (fluorescence polarization)
# particulars: 10 µM macrocycle concentration; crude acylated macrocycle (scaffold Mpa-AA1-AA2-AA3 x carboxylic acid); p53-based fluorescent peptide, human MDM2
Numbered stars: 1 amine (or outer) side, 2 acyl side, 3 side chain; on linkers, the order of the positions; unused ones are H or OH. Bridge positions count the residues as written; N and C are the ends. Square brackets hold non-standard residues; d marks the D form. Peptide text beside a SMILES is read from it. * marks the point of attachment. Shikimoyl = O=C(C1=C[C@@H](O)[C@@H](O)[C@H](O)C1)*; Propanoyl(3-(4-Cl-Ph)) = O=C(CCc1ccc(Cl)cc1)*; 1,2,3Thiadiazole5CO(4-Me) = Cc1nnsc1C(=O)*; Isoorotoyl = O=C(c1c[nH]c(=O)[nH]c1=O)*; Pentanoyl(4-Me) = CC(C)CCC(=O)*; X5 = O=C(c1cc2cc(Cl)ccc2[nH]1)*; Cysteamide = C(CS[*:3])N[*:1]; X1 = O=C(/C=C/c1ccccc1)*; Dap = NC[C@H](N)C(=O)O; Mpa = O=C(O)CCS
recordedMetric: fraction fluorescent probe displaced

molecule="Cc1nnsc1C(=O)NC[C@@H]1NC(=O)[C@@H]2CCCN2C(=O)CCSSCCNC(=O)[C@H](Cc2c[nH]c3ccccc23)NC1=O [X-B1-D3-W + A15] ([Mpa]P[Dap](1,2,3Thiadiazole5CO(4-Me))W-Cysteamide; disulfide 1-C)" readoutvalue=0.02409
molecule="O=C(NC[C@@H]1NC(=O)[C@@H]2CCCN2C(=O)CCSSCCNC(=O)[C@H](Cc2ccccc2)NC1=O)C1=C[C@@H](O)[C@@H](O)[C@H](O)C1 [X-B1-D3-F + A72] ([Mpa]P[Dap](Shikimoyl)F-Cysteamide; disulfide 1-C)" readoutvalue=0.06911
molecule="O=C(CCc1ccc(Cl)cc1)NC[C@@H]1NC(=O)[C@@H]2CCCN2C(=O)CCSSCCNC(=O)[C@H](Cc2c[nH]c3ccccc23)NC1=O [X-B1-D3-W + A42] ([Mpa]P[Dap](Propanoyl(3-(4-Cl-Ph)))W-Cysteamide; disulfide 1-C)" readoutvalue=0.05096
molecule="O=C(/C=C/c1ccccc1)NC[C@@H]1NC(=O)[C@@H]2CCCN2C(=O)CCSSCCNC(=O)[C@H](Cc2c[nH]c3ccccc23)NC1=O [X-B1-D3-W + A91] ([Mpa]P[Dap](X1)W-Cysteamide; disulfide 1-C)" readoutvalue=0.1099
molecule="O=C(NC[C@@H]1NC(=O)[C@@H]2CCCN2C(=O)CCSSCCNC(=O)[C@H](Cc2c[nH]c3ccccc23)NC1=O)c1cc2cc(Cl)ccc2[nH]1 [X-B1-D3-W + A39] ([Mpa]P[Dap](X5)W-Cysteamide; disulfide 1-C)" readoutvalue=0.06212
molecule="CC(C)CCC(=O)NC[C@@H]1NC(=O)[C@@H]2CCCN2C(=O)CCSSCCNC(=O)[C@H](Cc2c[nH]c3ccccc23)NC1=O [X-B1-D3-W + A68] ([Mpa]P[Dap](Pentanoyl(4-Me))W-Cysteamide; disulfide 1-C)" readoutvalue=-0.02228
molecule="NC[C@@H]1NC(=O)[C@@H]2CCCN2C(=O)CCSSCCNC(=O)[C@H](Cc2c[nH]c3ccccc23)NC1=O [X-B1-D3-W + No Acid] ([Mpa]P[Dap]W-Cysteamide; disulfide 1-C)" readoutvalue=0.1075

// next item, fraction fluorescent probe displaced requested
Challenge: Dear colleague, I am looking for the recorded fraction fluorescent probe displaced of the following molecule: O=C(NC[C@@H]1NC(=O)[C@@H]2CCCN2C(=O)CCSSCCNC(=O)[C@H](Cc2c[nH]c3ccccc23)NC1=O)c1c[nH]c(=O)[nH]c1=O [X-B1-D3-W + A11] ([Mpa]P[Dap](Isoorotoyl)W-Cysteamide; disulfide 1-C)
Response given: 0.1
